# Tested on: Staphylococcus aureus
# assay.remarks: Minimum inhibitory concentration against Staphylococcus aureus A4 (inoculum, 10e5 cfu per spot)
# Format: functional
property.name: MIC

Use the examples below as a reference point.
Cn1nnnc1SCC1=C(C(=O)OC(c2ccccc2)c2ccccc2)N2C(=O)[C@@H](Nc3nc4cc(O)ccc4[nH]3)C2SC1 (some centres undefined) : 16 µg/mL
CC(=O)OCC1=C(C(=O)OC(C)(C)C)N2C(=O)[C@@H](Nc3nc4cc[nH]cc-4n3)C2SC1 (some centres undefined) : 256 µg/mL
CC1=C(C(=O)OC(c2ccccc2)c2ccccc2)N2C(=O)[C@@H](NC3=NCC(C)N3)C2SC1 (some centres undefined) : > 256 µg/mL

Okay, next one:
Task: Looking for the measured MIC of CC1=C(C(=O)OC(c2ccccc2)c2ccccc2)N2C(=O)[C@@H](NC3=NC(C(N)=O)CN3)C2SC1 (some centres undefined) , can you help?
Result: > 256 µg/mL

----------
# Test system: Klebsiella aerogenes
# assay.remarks: Minimum inhibitory concentration against Klebsiella aerogenes X5L (inoculum, 10e4 cfu per spot)
# Format: functional
property.name: MIC

CC(=O)OCC1=C(C(=O)OC(c2ccccc2)c2ccccc2)N2C(=O)[C@@H](Nc3nc4ccccc4[nH]3)C2SC1 (some centres not stated) : ≥ 128 µg/mL
CC(=O)OCC1=C(C(=O)OC(c2ccccc2)c2ccccc2)N2C(=O)[C@@H](Nc3nc4cc(C(F)(F)F)ccc4[nH]3)C2SC1 (some centres not stated) : > 256 µg/mL
CO[C@@]1(Nc2nc3ccccc3[nH]2)C(=O)N2C(C(=O)OC(c3ccccc3)c3ccccc3)=C(COC(C)=O)CSC21 (some centres not stated) : > 256 µg/mL
CC(=O)OCC1=C(C(=O)OC(C)(C)C)N2C(=O)[C@@H](Nc3nc4cc(N)ccc4[nH]3)C2SC1 (some centres not stated) : 8 µg/mL
CC(=O)OCC1=C(C(=O)OC(c2ccccc2)c2ccccc2)N2C(=O)[C@@H](Nc3nc4c(O)cccc4[nH]3)C2SC1 (some centres not stated) : 256 µg/mL

Task: Looking for the measured MIC of Cc1nnc(SCC2=C(C(=O)OC(c3ccccc3)c3ccccc3)N3C(=O)[C@@H](Nc4nc5ccccc5[nH]4)C3SC2)s1 (some centres not stated) , can you help?
Result: ≥ 128 µg/mL

Task: Looking for the measured MIC of CC(=O)OCC1=C(C(=O)OC(c2ccccc2)c2ccccc2)N2C(=O)[C@@H](Nc3nc4cc(C(=O)O)ccc4[nH]3)C2SC1 (some centres not stated) , can you help?
Result: > 256 µg/mL

----------
# Test system: Pseudomonas aeruginosa
# assay.remarks: Minimum inhibitory concentration against Pseudomonas aeruginosa A21 (inoculum, 10e5 cfu per spot)
# Type: functional
Listed here are compounds together with their documented MIC.

CC(=O)OCC1=C(C(=O)OC(c2ccccc2)c2ccccc2)N2C(=O)[C@@H](Nc3nc4cscc4[nH]3)C2SC1 (stereo partly drawn) : > 256 µg/mL
CC1=C(C(=O)OC(c2ccccc2)c2ccccc2)N2C(=O)[C@@H](NC3=NC(c4ccc(C#N)cc4)CN3)C2SC1 (stereo partly drawn) : > 256 µg/mL
CC1=C(C(=O)OC(c2ccccc2)c2ccccc2)N2C(=O)[C@@H](NC3=NC(c4ccc(O)c(O)c4)CN3)C2SC1 (stereo partly drawn) : > 256 µg/mL
Cn1nnnc1SCC1=C(C(=O)OC(C)(C)C)N2C(=O)[C@@H](NC3=NCCN3)C2SC1 (stereo partly drawn) : > 256 µg/mL
CC1=C(C(=O)OC(c2ccccc2)c2ccccc2)N2C(=O)[C@@H](NC3=NCCN3C)C2SC1 (stereo partly drawn) : > 200 µg/mL

Task: Lab note: need MIC with Pseudomonas aeruginosa for entry CC(=O)OCC1=C(C(=O)OC(c2ccccc2)c2ccccc2)N2C(=O)[C@@H](Nc3nc4cc(C(=O)O)ccc4[nH]3)C2SC1 (stereo partly drawn) , please look it up.
Result: > 256 µg/mL

Task: Lab note: need MIC with Pseudomonas aeruginosa for entry Cn1nnnc1SCC1=C(C(=O)OC(c2ccccc2)c2ccccc2)N2C(=O)[C@@H](Nc3nc4cc(O)ccc4[nH]3)C2SC1 (stereo partly drawn) , please look it up.
Result: > 256 µg/mL

Task: Lab note: need MIC with Pseudomonas aeruginosa for entry CC1=C(C(=O)OC(c2ccccc2)c2ccccc2)N2C(=O)[C@@H](Nc3nc4ccccc4[nH]3)C2SC1 (stereo partly drawn) , please look it up.
Result: > 1000 µg/mL

Each recorded value in this set is attributed to ChEMBL document CHEMBL1125626.
